- Method description: Cytotoxicity against human ovarian cancer cells
- Assay type: functional
- Test context: Cancer cell lines
Assay readout: log10 GI50 (log10 of the value in nM)
Answers are given as log10 of GI50 in nM.

Would you please look over these solved cases?
Record smiles: CCCCc1c2c(OC)c(OC)cc(Br)c2cc2[n+]1CCc1cc3c(cc1-2)OCO3
log10 GI50: 3.14
//
Record smiles: CCCCc1c2[n+](cc3c(OC)c(OC)ccc13)CCc1cc3c(cc1-2)OCO3
log10 GI50: 3.72
//
Record smiles: COc1cccc2c1C(=O)c1c(O)c3c(c(O)c1C2=O)C[C@@](O)(C(=O)CO)C[C@@H]3O[C@H]1C[C@H](N)[C@H](O)[C@H](C)O1
log10 GI50: 3.64
//
Record smiles: COc1cc(Br)c2cc3[n+](c(-c4ccccc4)c2c1OC)CCc1cc2c(cc1-3)OCO2
log10 GI50: 3.39
//
Record smiles: CCCCCCc1c2[n+](cc3c(OC)c(OC)ccc13)CCc1cc3c(cc1-2)OCO3
log10 GI50: 3.07
//
Record smiles: CCCCCCc1c2c(OC)c(OC)cc(Br)c2cc2[n+]1CCc1cc3c(cc1-2)OCO3
log10 GI50: 2.68

Query :: Recall and state the measured log10 GI50 for "CCCCCCc1c2[n+](cc3c(OC)c(OC)ccc13)CCc1cc(OC)c(OC)cc1-2" .
Result :: 3.46

Query :: Recall and state the measured log10 GI50 for "CO[C@@]12[C@H](COC(N)=O)C3=C(C(=O)C(C)=C(N)C3=O)N1C[C@@H]1N[C@@H]12" .
Result :: 2.08

----------
- Method description: Cytotoxicity against human CNS cancer cells
- Type: functional
- Test context: Cancer cell lines
Assay readout: GI50 (nM)
The response must be a number in nM with no trailing unit.

Would you please look over these solved cases?
Compound: CCCCc1c2[n+](cc3c(OC)c(OC)ccc13)CCc1cc3c(cc1-2)OCO3
Assay readout: GI50
Readout unit: nM
Assay value: 3710

Compound: CCCCCCc1c2c(OC)c(OC)cc(Br)c2cc2[n+]1CCc1cc3c(cc1-2)OCO3
Assay readout: GI50
Readout unit: nM
Assay value: 410

Compound: CCCCCCc1c2[n+](cc3c(OC)c(OC)ccc13)CCc1cc(OC)c(OC)cc1-2 [13-HEXYLPALMATINE]
Assay readout: GI50
Readout unit: nM
Assay value: 2950

Compound: CCCCCCc1c2[n+](cc3c(OC)c(OC)ccc13)CCc1cc3c(cc1-2)OCO3
Assay readout: GI50
Readout unit: nM
Assay value: 1200

Compound: CCCCc1c2c(OC)c(OC)cc(Br)c2cc2[n+]1CCc1cc3c(cc1-2)OCO3
Assay readout: GI50
Readout unit: nM
Assay value: 1910

API: the following record is the query input.
Query :: Recall and state the measured GI50 for "COc1cc(Br)c2cc3[n+](c(-c4ccccc4)c2c1OC)CCc1cc2c(cc1-3)OCO2" .
Result :: 2000

----------
- Method description: Cytotoxicity against human breast cancer cells
- Type: functional
- Test context: Cancer cell lines
Lab note - cut at 500 nM for GI50: yes if strictly below, no if not.

Record smiles: CCCCCCc1c2c(OC)c(OC)cc(Br)c2cc2[n+]1CCc1cc3c(cc1-2)OCO3
Qualitative label: yes

Query :: Hello, is GI50 of the following molecule strictly smaller than 500 nM? "CO[C@@]12[C@H](COC(N)=O)C3=C(C(=O)C(C)=C(N)C3=O)N1C[C@@H]1N[C@@H]12"
Result :: yes

Query :: Hello, is GI50 of the following molecule strictly smaller than 500 nM? "COc1cc(Br)c2cc3[n+](c(-c4ccccc4)c2c1OC)CCc1cc2c(cc1-3)OCO2"
Result :: no

----------
- Method description: Cytotoxicity against human breast cancer cells
- Type: functional
- Test context: Cancer cell lines
Lab note - cut at 800 nM for GI50: yes if strictly below, no if not.

Below are worked cases with known answers.
Record smiles: CCCCCCc1c2[n+](cc3c(OC)c(OC)ccc13)CCc1cc3c(cc1-2)OCO3
Qualitative label: yes
--
Record smiles: CCCCc1c2c(OC)c(OC)cc(Br)c2cc2[n+]1CCc1cc3c(cc1-2)OCO3
Qualitative label: yes
--
Record smiles: CCCCCCc1c2[n+](cc3c(OC)c(OC)ccc13)CCc1cc(OC)c(OC)cc1-2
Qualitative label: no
--
Record smiles: COc1cccc2c1C(=O)c1c(O)c3c(c(O)c1C2=O)C[C@@](O)(C(=O)CO)C[C@@H]3O[C@H]1C[C@H](N)[C@H](O)[C@H](C)O1
Qualitative label: no

Now consider the entry below.
Query :: Hello, is GI50 of the following compound strictly smaller than 800 nM? "CCCCc1c2[n+](cc3c(OC)c(OC)ccc13)CCc1cc3c(cc1-2)OCO3"
Result :: no
